Numbers sourced from patent US20020058024A1.

Target: T1, RAP (RIP-associated protein) (human, UniProt Q9Y3I1 1-522, limits assumed)
T1 construct: The clone first isolated in the two-hybrid screen was a partial clone of about 1.9 Kb; also called RAP protein; RAP-1 (clone of about 2.2 kB, CNCM I-2706)
T1 sequence: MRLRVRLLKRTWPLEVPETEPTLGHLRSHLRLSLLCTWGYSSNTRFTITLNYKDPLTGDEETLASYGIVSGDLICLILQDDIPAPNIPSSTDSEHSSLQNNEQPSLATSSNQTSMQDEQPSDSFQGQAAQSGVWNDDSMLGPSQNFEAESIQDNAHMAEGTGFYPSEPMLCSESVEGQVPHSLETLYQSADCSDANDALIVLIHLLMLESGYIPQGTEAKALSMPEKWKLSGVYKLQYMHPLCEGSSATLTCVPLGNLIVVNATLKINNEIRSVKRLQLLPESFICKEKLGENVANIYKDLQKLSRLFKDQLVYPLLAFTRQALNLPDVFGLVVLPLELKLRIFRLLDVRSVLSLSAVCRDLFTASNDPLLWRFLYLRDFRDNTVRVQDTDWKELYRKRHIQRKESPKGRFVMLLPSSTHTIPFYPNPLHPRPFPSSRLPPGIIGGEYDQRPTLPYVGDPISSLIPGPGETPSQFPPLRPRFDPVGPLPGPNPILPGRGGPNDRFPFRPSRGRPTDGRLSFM
Test: binding assay tests (method not named)

Binder: MORT-1 (other, UniProt Q13158 1-208, looked up, also called FADD) MDPFLVLLHSVSSSLSSSELTELKFLCLGRVGKRKLERVQSGLDLFSMLLEQNDLEPGHTELLRELLASLRRHDLLRRVDDFEAGAAAGAAPGEEDLCAAFNVICDNVGKDWRRLARQLKVSDTKIDSIEDRYPRNLTERVRESLRIWKNTEKENATVAHLVGALRSCQMNLVADLVQEVQQARDLQNRSGAMSPMSWNSDASTSEAS
binding result: no binding

Binder: p55-R (receptor, UniProt P19438 235-455, looked up, also called p55 TNF-R; p55 tumor necrosis factor receptor) RYQRWKSKLYSIVCGKSTPEKEGELEGTTTKPLAPNPSFSPTPGFTPTLGFSPVPSSTFTSSSTYTPGDCPNFAAPRREVAPPYQGADPILATALASDPIPNPLQKWEDSAHKPQSLDTDDPATLYAVVENVPPLRWKEFVRRLGLSDHEIDRLELQNGRCLREAQYSMLATWRRRTPRREATLELLGRVLRDMDLLGCLEDIEEALCGPAALPPAPSLLR
binding result: no binding

Binder: p75-R (receptor, UniProt P20333 287-461, looked up, also called p75 TNF-R; p75 tumor necrosis factor receptor) VKKKPLCLQREAKVPHLPADKARGTQGPEQQHLLITAPSSSSSSLESSASALDRRAPTRNQPQAPGVEASGAGEARASTGSSDSSPGGHGTQVNVTCIVNVCSSSDHSSQCSSQASSTMGDTDSSPSESPKDEQVPFSKEECAFRSQLETPETLLGSTEEKPLPLGVPDAGMKPS
binding result: no binding
